Target: RORγt (Homo sapiens)
Sequence (P51449 1-497 isoform P51449-2, species assumed): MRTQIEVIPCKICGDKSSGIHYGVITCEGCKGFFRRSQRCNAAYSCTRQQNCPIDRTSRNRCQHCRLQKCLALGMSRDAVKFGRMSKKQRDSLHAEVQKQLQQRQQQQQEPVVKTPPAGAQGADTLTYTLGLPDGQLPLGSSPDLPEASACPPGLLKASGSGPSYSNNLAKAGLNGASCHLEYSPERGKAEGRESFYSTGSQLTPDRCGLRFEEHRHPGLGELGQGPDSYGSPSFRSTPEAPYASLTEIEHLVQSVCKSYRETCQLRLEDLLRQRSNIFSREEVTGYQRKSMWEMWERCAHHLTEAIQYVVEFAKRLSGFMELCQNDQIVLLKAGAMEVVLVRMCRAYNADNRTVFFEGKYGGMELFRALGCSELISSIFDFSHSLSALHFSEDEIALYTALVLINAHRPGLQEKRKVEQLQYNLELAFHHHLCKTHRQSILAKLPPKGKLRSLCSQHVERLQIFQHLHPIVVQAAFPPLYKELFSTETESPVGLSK
Assay: Jurkat reporter test (human IL-17 ROR response element luciferase, RORγt vector)
Format: cell-based
Conditions: Jurkat, read-out: Luminescence level inhibitory rate at test compound 3 μM (%)
parameterMeasured: inhibition at 3 µM
Give your result as the value with the unit written after it.

IN: Report inhibition at 3 µM, nothing else, for this molecule: CCOc1ccc2c(c1)CCN(C(=O)CCCC(=O)O)[C@H]2C(=O)Nc1cc(F)c([Si](C)(C)C)cc1F [Example 184]
OUT: 100%

IN: Report inhibition at 3 µM, nothing else, for this molecule: CCOc1ccc2c(c1)CCN(C(=O)NCCC(=O)O)[C@H]2C(=O)Nc1cc(F)c([Si](C)(C)C)c(F)c1 [Example 227]
OUT: 101%

IN: Report inhibition at 3 µM, nothing else, for this molecule: CC[Si](C)(C)c1c(F)cc(NC(=O)[C@H]2c3ccc(OC)nc3CCN2C(=O)Cc2cc(O)no2)cc1F [Example 113]
OUT: 101%

IN: Report inhibition at 3 µM, nothing else, for this molecule: CCOc1ccc2c(n1)CCN(C(=O)CCCC(=O)O)[C@H]2C(=O)Nc1ccc([Si](C)(C)C)c(F)c1 [Example 152]
OUT: 103%

IN: Report inhibition at 3 µM, nothing else, for this molecule: COc1ccc2c(c1)CCN(C(=O)c1cc(O)no1)[C@H]2C(=O)Nc1ccc([Si](C)(C)C)c(F)c1 [Example 7]
OUT: 101%

IN: Report inhibition at 3 µM, nothing else, for this molecule: CCOc1ccc2c(c1)CCN(C(=O)CC(C)(O)CC(=O)O)[C@H]2C(=O)Nc1cc(F)c([Si](C)(C)C)c(F)c1 (stereo partly shown) [Example 240]
OUT: 101%

IN: Report inhibition at 3 µM, nothing else, for this molecule: COCc1ccc2c(c1)CCN(C(=O)Cc1cc(O)no1)[C@H]2C(=O)Nc1cc(F)c([Si](C)(C)C)c(F)c1 [Example 121]
OUT: 103%

IN: Report inhibition at 3 µM, nothing else, for this molecule: CCOc1ccc2c(n1)CCN(C(=O)CCCC(=O)O)[C@H]2C(=O)Nc1cc(F)c([Si](C)(C)C)c(F)c1 [Example 129]
OUT: 102%

IN: Report inhibition at 3 µM, nothing else, for this molecule: C[Si](C)(C)c1c(F)cc(NC(=O)[C@H]2c3ccc4c(c3CCN2C(=O)N2CC(CC(=O)O)C2)OCO4)cc1F [Example 272]
OUT: 100%

IN: Report inhibition at 3 µM, nothing else, for this molecule: COc1ccc2c(c1)CCN(C(=O)c1ccc(=O)[nH]c1)C2C(=O)Nc1ccc([Si](C)(C)C)c(F)c1 (stereo not shown) [Example 4]
OUT: 99.7%

IN: Report inhibition at 3 µM, nothing else, for this molecule: COc1ccc2c(c1)CCN(C(=O)c1ccc(=O)[nH]c1)[C@H]2C(=O)Nc1ccc([Si](C)(C)C)c(F)c1 [Example 8]
OUT: 101%

IN: Report inhibition at 3 µM, nothing else, for this molecule: COCc1ccc2c(n1)CCN(C(=O)c1cc(O)no1)[C@H]2C(=O)Nc1cc(F)c([Si](C)(C)C)c(F)c1 [Example 136]
OUT: 103%

IN: Report inhibition at 3 µM, nothing else, for this molecule: COc1ccc2c(c1)CCN(C(=O)Cc1cc(O)no1)[C@H]2C(=O)Nc1cc(F)c([Si](C)(C)C)c(F)c1 [Example 85]
OUT: 101%

IN: Report inhibition at 3 µM, nothing else, for this molecule: COc1ccc2c(n1)CCN(C(=O)c1cc(O)no1)[C@H]2C(=O)Nc1cc(F)c([Si](C)(C)C)c(F)c1 [Example 122]
OUT: 103%

IN: Report inhibition at 3 µM, nothing else, for this molecule: CC[Si](C)(C)c1c(F)cc(NC(=O)[C@H]2c3ccc(COC)nc3CCN2C(=O)c2cc(O)no2)cc1F [Example 174]
OUT: 98%

IN: Report inhibition at 3 µM, nothing else, for this molecule: CCOc1ccc2c(c1)CCN(C(=O)[C@H](O)CCC(=O)O)[C@H]2C(=O)Nc1cc(F)c([Si](C)(C)C)c(F)c1 [Example 209]
OUT: 99%

Sourced from patent US10053468B2
